All figures here come from patent US11141452B2.

Target: MOR
Assay: Radioligand binding assay at μ opioid receptor
Description: Binding affinities of these ligands were measured on radioligand binding assays. […] ([43]).
Non-standard residues stand in square brackets, D forms with d. Residues, ends and D or L forms follow the SMILES beside them. *: point of attachment. NH(3,5-(CF3)2-benzyl) = FC(F)(F)c1cc(CN*)cc(C(F)(F)F)c1; Dmt = Cc1cc(O)cc(C)c1C[C@H](N)C(=O)O; NMeF = CN[C@@H](Cc1ccccc1)C(=O)O
Labelling field: enter YES if recorded Ki is less than 4 nM. Enter NO if it equals or exceeds that cut-off.

Does CC(C)C[C@H](NC(=O)[C@@H]1CCCN1C(=O)CCNC(=O)[C@H](Cc1ccccc1)N(C)C(=O)CNC(=O)[C@@H](C)NC(=O)[C@@H](N)Cc1ccc(O)cc1)C(=O)N[C@@H](Cc1c[nH]c2ccccc12)C(=O)NCc1cc(C(F)(F)F)cc(C(F)(F)F)c1 [AKG119] have Ki strictly under 4 nM?
NO

Does CC(C)C[C@H](NC(=O)[C@@H]1CCCN1C(=O)[C@H](CCC(N)=O)NC(=O)[C@H](Cc1ccc(F)cc1)NC(=O)CNC(=O)[C@@H](C)NC(=O)[C@@H](N)Cc1ccc(O)cc1)C(=O)N[C@@H](Cc1c[nH]c2ccccc12)C(=O)NCc1cc(C(F)(F)F)cc(C(F)(F)F)c1 [AKG142] have Ki strictly under 4 nM?
NO

Does CCCC[C@H](NC(=O)[C@H](Cc1ccccc1)N(C)C(=O)CNC(=O)[C@@H](C)NC(=O)[C@@H](N)Cc1ccc(O)cc1)C(=O)N1CCC[C@H]1C(=O)N[C@@H](CC(C)C)C(=O)N[C@@H](Cc1c[nH]c2ccccc12)C(=O)NCc1cc(C(F)(F)F)cc(C(F)(F)F)c1 [AKG112] have Ki strictly under 4 nM?
NO

Does Cc1cc(O)cc(C)c1C[C@H](N)C(=O)N[C@H](C)C(=O)NCC(=O)N[C@@H](Cc1ccc(I)cc1)C(=O)N1CCC[C@H]1C(=O)N[C@@H](CC(C)C)C(=O)N[C@@H](Cc1c[nH]c2ccccc12)C(=O)NCc1cc(C(F)(F)F)cc(C(F)(F)F)c1 [AKG193] have Ki strictly under 4 nM?
NO

Does Cc1cc(O)cc(C)c1C[C@H](N)C(=O)N[C@H](C)C(=O)NCC(=O)N(C)[C@@H](Cc1ccccc1)C(=O)N[C@@H](CO)C(=O)NCC(=O)N1CCC[C@H]1C(=O)N[C@@H](CC(C)C)C(=O)N[C@@H](Cc1c[nH]c2ccccc12)C(=O)NCc1cc(C(F)(F)F)cc(C(F)(F)F)c1 [AKG-CRA-137] (H-[Dmt][dA]G[NMeF]SGPLW-{NH(3,5-(CF3)2-benzyl)}) have Ki strictly under 4 nM?
YES

Does Cc1cc(O)cc(C)c1C[C@H](N)C(=O)N[C@H](C)C(=O)NCC(=O)N(C)[C@@H](Cc1ccccc1)C(=O)N1CCC[C@H]1C(=O)N[C@@H](CC(C)C)C(=O)N[C@@H](Cc1c[nH]c2ccccc12)C(=O)NCc1cc(C(F)(F)F)cc(C(F)(F)F)c1 [AKG115] have Ki strictly under 4 nM?
YES
